These measurements were taken from paper PMC10674403.

biological target: ABCG2 (Homo sapiens, UniProt Q9UNQ0); experiment: Vanadate-sensitive ATPase stimulation in ABCG2 membrane vesicles (Pi release); also inhibition of PhA efflux in ABCG2-transfected HEK293 cells
Sequence (Q9UNQ0 whole entry): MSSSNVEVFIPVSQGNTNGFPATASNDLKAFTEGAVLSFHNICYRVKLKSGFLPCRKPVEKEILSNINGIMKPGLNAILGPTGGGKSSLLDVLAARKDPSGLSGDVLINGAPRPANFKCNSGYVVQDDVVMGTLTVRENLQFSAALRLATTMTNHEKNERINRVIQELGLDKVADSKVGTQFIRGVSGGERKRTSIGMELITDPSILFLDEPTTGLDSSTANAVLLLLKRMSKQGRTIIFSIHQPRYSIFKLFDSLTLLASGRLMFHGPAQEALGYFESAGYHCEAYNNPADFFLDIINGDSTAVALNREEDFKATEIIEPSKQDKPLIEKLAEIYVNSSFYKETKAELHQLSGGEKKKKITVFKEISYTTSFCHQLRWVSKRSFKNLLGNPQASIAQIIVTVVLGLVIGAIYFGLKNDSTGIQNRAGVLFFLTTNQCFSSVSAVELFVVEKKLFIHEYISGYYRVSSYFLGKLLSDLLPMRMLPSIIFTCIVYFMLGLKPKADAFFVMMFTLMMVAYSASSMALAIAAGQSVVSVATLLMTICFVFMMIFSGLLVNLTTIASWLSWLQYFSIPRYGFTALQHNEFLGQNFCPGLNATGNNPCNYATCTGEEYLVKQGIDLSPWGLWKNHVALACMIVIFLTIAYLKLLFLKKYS
Recorded endpoint: EC50

EC50 recorded for this compound, `CC(C)=CCOc1c2occc2cc2ccc(=O)oc12` , is ~170 nM
